The following binders are shown together with reported interaction score values.
Target: T1, 4H3129-bH
T1 chain: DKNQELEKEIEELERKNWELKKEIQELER
Experiment: two-hybrid library CCNG1;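 further: natural log of median RNA to DNA barcode read ratio; higher means stronger binding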
Reply: number alone, nothing else.

{"binder": "DENQELEKKIEELKRKNWELEKEIQELER [4H1393-bH]", "recorded-measurement": 0.0961}
{"binder": "DKNQQLEQEIQELEQKIQELEWKNQELKQ [4H3112-bN]", "recorded-measurement": -0.762}
{"binder": "DENQELKKEIEELKRENWELKKKIQELER [4H1629-bH]", "recorded-measurement": -0.581}
{"binder": "DKNQELEKEIEELERKNWELKKEIQELER [4H3129-bH]", "recorded-measurement": -2.16}
{"binder": "DENQELKKENEELERKIWELKKKIQELKR [4H1710-bH]", "recorded-measurement": 0.0138}

Q: interaction score lookup needed for DENQELEKKIEELKREIWELKKKNQELER [4H1359-bH] , thanks.
Result: -0.249

Q: interaction score lookup needed for DENQELKKKNEELKREIWELEKEIQELER [4H1985-bH] , thanks.
Result: -0.549

Q: interaction score lookup needed for DENQELEKKNEELERKIWELKKEIQELER [4H1449-bH] , thanks.
Result: -0.319

Q: interaction score lookup needed for DENQELKKKIEELEREIWELKKENQELKR [4H1804-bH] , thanks.
Result: -0.437

Q: interaction score lookup needed for DENQELEKENEELKREIWELEKKIQELKR [4H1222-bH] , thanks.
Result: 0.793
